Experimental Target: CD38 (Homo sapiens)
Experiment Description: CD38 activity and inhibition measurements (time-dependent inactivation, NGD+ to cGDPR, absorbance at 295 nm)
Assay type: biochemical
Condition Set: read-out: Kieff = koff/kon (kon from activity decay)
Recorded Metric: Ki (nM)
# unit: nM | format: bare number

Given NC(=O)c1ccc[n+]([C@H]2C[C@H](O)[C@@H](CO)O2)c1 [βNdR, β-1′-nicotinamide-2′-deoxyribose] , state its recorded Ki.
5

---

Experimental Target: CD38 (Homo sapiens, UniProt P28907)
Sequence (P28907 45-300): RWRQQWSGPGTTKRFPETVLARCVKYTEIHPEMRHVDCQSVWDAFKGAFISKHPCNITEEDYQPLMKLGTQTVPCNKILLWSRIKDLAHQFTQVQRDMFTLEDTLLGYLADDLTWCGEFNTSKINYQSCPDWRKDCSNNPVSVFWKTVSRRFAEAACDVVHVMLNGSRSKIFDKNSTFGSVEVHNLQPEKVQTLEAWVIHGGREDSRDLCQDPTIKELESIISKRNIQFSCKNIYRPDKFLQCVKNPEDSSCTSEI
Experiment Description: Radiochemical measurement of reaction rates (covalent labelling of CD38 by [2′-3H] inhibitor, gel filtration)
Format: binding
Condition Set: kon from radioactivity; read-out: Kieff = koff/kon (Radioactivity, koff)
Recorded Metric: pKi
Note: pKi values are expressed as the negative base-10 logarithm of concentration in M.

Given NC(=O)c1ccc[n+]([C@H]2C[C@H](O)[C@@H](CO)O2)c1 [βNdR, β-1′-nicotinamide-2′-deoxyribose] , state its recorded pKi.
8.48

Provenance of the data: patent US7504489B2
